Field: composite z-score. Provide a value for each of the compounds that follow.
Experimental Protocol: binders of probe aHhip on microarray, primary screen, stem cell growth factor project, biochemical, small-molecule microarray, fluorescence 635/667 (AID 1087);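 also: score merges spot fluorescence at 667nm with spot signal to noise ratio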
Condition Context: higher = more signal

Query string: Which composite z-score value is on record for O=C1C2C=CC(C(O)C(c3ccccc3)c3ccccc3)N(n3cnnc3)C2C(=O)N1Cc1ccccc1 (centres undefined) ?
Result string: 0.446

Query string: Fill in the blank: the reported composite z-score of Cc1ccc(S[C@]2(C(=O)NC3CC3)CC(=O)N(C3Cc4ccccc4C3)[C@@H]2c2ccc(CO)cc2)cc1 is ____.
Result string: -0.134

Query string: What does the record list as composite z-score for CCC(CC)C(O)C1C=CC2C(=O)N(C)C(=O)C2N1Nc1ccccc1 (centres undefined) ?
Result string: -0.134

Query string: Name the recorded composite z-score for O=C1O[C@H](c2ccccc2)[C@H](c2ccccc2)N2[C@H]1[C@@H](C(=O)N1CCN(c3ncccn3)CC1)[C@]1(C(=O)Nc3ccc(C#CC4=CCCCC4)cc31)[C@H]2c1ccc(O)cc1 .
Result string: -0.201
